tested on: K-562; assay: Proliferation inhibition, CellTiter-Glo, K-562; assay type: cell-based, human; conditions: Homo sapiens, K562, 96 h; K-562 cells, IC50 (4 days), CellTiter-Glo; read-out: K-562 IC50
Please go through the items and note down their IC50.

stdin: Fill in the blank: the reported IC50 of `Cc1nc(C(N)=O)c(Nc2cccc(CCNC(=O)[C@H](C)N(C)C(=O)/C=C/CN(C)C)c2)nc1N(C)C(C)C` is ____.
stdout: > 500 nM

stdin: Proceed to `CCc1nc(C(N)=O)c(Nc2cccc(CCNC(=O)CN(C)C(=O)/C=C/CN3CCC3)c2)nc1OC(C)C`
stdout: > 500 nM

stdin: Proceed to `CCc1cc(C(N)=O)c(Nc2cccc(CCNC(=O)[C@H](C)N(C)C(=O)/C=C/CN(C)C)c2)nc1N(C)C`
stdout: > 500 nM
